target: Ubiquitin carboxyl-terminal hydrolase 1/WD repeat-containing protein 48 (Homo sapiens, UniProt O94782+Q8TAF3); test: In Vitro USP1  Inhibitory Activity
Sequence (O94782 whole entry): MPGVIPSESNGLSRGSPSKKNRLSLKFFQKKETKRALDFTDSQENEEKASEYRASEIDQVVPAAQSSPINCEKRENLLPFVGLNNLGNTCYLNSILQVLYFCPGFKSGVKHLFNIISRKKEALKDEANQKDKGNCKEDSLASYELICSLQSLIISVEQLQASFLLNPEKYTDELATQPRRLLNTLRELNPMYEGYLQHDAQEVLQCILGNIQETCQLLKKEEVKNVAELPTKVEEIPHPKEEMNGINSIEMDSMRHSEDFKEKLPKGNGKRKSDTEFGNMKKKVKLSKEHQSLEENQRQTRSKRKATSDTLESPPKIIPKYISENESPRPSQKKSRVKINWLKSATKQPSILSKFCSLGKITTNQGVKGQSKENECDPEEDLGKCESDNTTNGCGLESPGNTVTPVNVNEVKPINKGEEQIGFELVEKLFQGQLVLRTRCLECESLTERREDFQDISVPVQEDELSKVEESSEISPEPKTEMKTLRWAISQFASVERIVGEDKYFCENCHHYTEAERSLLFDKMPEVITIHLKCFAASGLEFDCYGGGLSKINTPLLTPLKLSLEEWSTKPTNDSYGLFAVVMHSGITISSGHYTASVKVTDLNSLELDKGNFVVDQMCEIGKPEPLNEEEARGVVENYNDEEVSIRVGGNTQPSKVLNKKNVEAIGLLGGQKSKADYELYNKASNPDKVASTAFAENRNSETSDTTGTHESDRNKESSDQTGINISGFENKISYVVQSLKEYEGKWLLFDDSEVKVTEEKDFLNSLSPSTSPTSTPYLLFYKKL
Sequence (Q8TAF3 whole entry): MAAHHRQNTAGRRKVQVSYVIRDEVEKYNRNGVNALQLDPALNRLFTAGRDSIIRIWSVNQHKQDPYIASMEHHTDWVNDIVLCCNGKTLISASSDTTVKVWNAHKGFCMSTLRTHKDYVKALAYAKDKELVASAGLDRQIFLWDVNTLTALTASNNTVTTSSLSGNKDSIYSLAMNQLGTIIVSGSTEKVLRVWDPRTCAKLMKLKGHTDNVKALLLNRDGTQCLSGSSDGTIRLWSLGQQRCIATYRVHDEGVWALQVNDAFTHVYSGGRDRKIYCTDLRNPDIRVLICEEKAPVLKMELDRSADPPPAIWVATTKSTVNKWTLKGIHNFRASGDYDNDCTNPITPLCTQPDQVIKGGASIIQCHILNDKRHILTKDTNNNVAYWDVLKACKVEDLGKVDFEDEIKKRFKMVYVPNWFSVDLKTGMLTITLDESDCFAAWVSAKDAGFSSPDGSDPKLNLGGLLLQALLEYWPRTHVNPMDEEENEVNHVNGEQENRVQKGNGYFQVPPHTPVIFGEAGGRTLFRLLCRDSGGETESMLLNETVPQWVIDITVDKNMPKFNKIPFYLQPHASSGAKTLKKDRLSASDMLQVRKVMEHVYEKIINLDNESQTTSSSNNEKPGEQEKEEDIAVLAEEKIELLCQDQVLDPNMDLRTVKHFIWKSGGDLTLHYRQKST
pIC50: −log10 of the molar value.
Value Kind: pIC50

P = COc1cnc(-c2c(OC)ncnc2C2CC2)nc1N(Cc1ccc(-c2nc(C(F)(F)F)cn2C)cc1)OC [US20250289799, Example 142]
Q = COc1cnc(-c2ccccc2N(C)C)nc1NCc1ccc(-c2nc(C(F)(F)F)cn2C)cc1 [US20250289799, Example 159]
R = CC(C)Oc1cnc(-c2ccccc2C(C)C)nc1N(C)Cc1ccc(-c2nc(C(F)(F)F)cn2C)cc1 [US20250289799, Example 71]
List items by pIC50 in falling order. Lab note: final answer is the ordered label list. Q, R, P
